Molecular target: UniProt Q9Y239
Sequence (Q9Y239 whole entry): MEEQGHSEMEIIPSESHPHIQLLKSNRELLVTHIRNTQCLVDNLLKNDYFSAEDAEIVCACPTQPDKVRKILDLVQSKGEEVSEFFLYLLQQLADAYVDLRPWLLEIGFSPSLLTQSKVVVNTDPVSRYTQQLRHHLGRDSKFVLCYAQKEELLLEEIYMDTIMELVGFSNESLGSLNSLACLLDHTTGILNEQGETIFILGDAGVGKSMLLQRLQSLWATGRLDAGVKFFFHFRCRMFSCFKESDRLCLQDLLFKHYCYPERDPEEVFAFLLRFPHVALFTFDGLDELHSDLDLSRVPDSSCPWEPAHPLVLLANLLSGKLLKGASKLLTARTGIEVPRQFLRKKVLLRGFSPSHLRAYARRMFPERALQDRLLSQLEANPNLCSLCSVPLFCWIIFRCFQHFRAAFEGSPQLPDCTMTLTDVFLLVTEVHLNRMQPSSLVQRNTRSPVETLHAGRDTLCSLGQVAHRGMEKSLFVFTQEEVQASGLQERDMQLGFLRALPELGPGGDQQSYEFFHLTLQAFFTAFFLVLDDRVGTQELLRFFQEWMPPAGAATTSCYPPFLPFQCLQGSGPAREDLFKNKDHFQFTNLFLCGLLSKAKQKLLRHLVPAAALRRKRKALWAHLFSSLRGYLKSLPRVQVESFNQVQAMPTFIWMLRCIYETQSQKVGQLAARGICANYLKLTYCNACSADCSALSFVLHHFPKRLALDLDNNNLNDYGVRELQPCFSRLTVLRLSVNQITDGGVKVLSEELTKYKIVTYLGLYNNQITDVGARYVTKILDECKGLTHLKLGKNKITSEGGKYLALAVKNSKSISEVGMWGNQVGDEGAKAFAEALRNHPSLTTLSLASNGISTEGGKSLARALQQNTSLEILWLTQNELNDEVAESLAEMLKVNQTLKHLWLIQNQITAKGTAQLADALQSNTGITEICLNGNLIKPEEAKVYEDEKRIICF
Assay: Microscale thermophoresis (MST) binding to purified NOD1-GFP
Conditions: Kd(NOD1: S1P), Fig 7C, S1P alone
MEASURED PROPERTY: Kd (nM)

1) CCCCCCCCCCCCC/C=C/[C@@H](O)[C@@H](N)COP(=O)(O)O [S1P, sphingosine‐1‐phosphate]
1740

---

System: HeLa inducible NOD1 or NOD2 cells
Assay: ELISA of IL6/IL8 in supernatants of HeLa inducible NOD1 or NOD2 cells
Assay type: cell-based, human
Conditions: Dynasore 50 µM, Fig EV1D,E (S2B-S2E in rebuttal)
MEASURED PROPERTY: IL6 production in the presence of dynasore

1) C=C1[C@@H](C)[C@H]2[C@H](Cc3ccccc3)NC(=O)[C@]23[C@H](OC(C)=O)/C=C/[C@@](C)(O)C(=O)[C@@H](C)C/C=C/[C@H]3[C@@H]1O [cytochalasin D]
higher IL6 production
2) CC(=O)N[C@@H]1[C@@H](O[C@H](C)C(=O)N[C@@H](C)C(=O)N[C@H](CCC(=O)O)C(N)=O)[C@H](O)[C@@H](CO)O[C@H]1O [MDP]
impaired
3) CC(=O)O[C@H]1C(=O)[C@@]2(C)[C@H]([C@H](OC(=O)c3ccccc3)[C@]3(O)C[C@H](OC(=O)[C@H](O)[C@@H](NC(=O)c4ccccc4)c4ccccc4)C(C)=C1C3(C)C)[C@]1(OC(C)=O)CO[C@@H]1C[C@@H]2O [paclitaxel]
higher IL6 production
4) CCCCC[C@H](CC(=O)NO)C(=O)N[C@H](C(=O)N1CCC[C@H]1CO)C(C)C [actinonin]
higher IL6 production
5) COC(=O)Nc1nc2ccc(C(=O)c3cccs3)cc2[nH]1 [nocodazole]
higher IL6 production
6) N[C@H](CCC(=O)N[C@H](CCC[C@H](N)C(=O)O)C(=O)O)C(=O)O [iE-DAP]
impaired
